assay: Cytotoxicity against human HEK293 cells assessed as reduction in cell viability at 50 uM incubated for 24 hrs by MTT assay relative to control; assay type: toxicity, cell-based; settings: read-out: INH
I would appreciate it if you labelled entries True when cytotoxicity at 24 h, 50 µM is 7% or higher, otherwise False.

Enquiry: hey, is cytotoxicity at 24 h, 50 µM for this one >= 7%? O=C(NC(=S)Nc1ccccc1O)C12CC3CC(CC(C3)C1)C2
Return: False

Enquiry: hey, is cytotoxicity at 24 h, 50 µM for this one >= 7%? O=C(NC(=S)Nc1cc([N+](=O)[O-])ccc1Cl)C12CC3CC(CC(C3)C1)C2
Return: False

Enquiry: hey, is cytotoxicity at 24 h, 50 µM for this one >= 7%? CN(C)CCCNC(=S)NC(=O)C12CC3CC(CC(C3)C1)C2
Return: True

Enquiry: hey, is cytotoxicity at 24 h, 50 µM for this one >= 7%? COc1cccc(NC(=S)NC(=O)C23CC4CC(CC(C4)C2)C3)c1
Return: True

Enquiry: hey, is cytotoxicity at 24 h, 50 µM for this one >= 7%? O=C(NC(=S)Nc1ccc(Br)cc1)C12CC3CC(CC(C3)C1)C2
Return: True

Enquiry: hey, is cytotoxicity at 24 h, 50 µM for this one >= 7%? O=C(NC(=S)Nc1cccc2cccnc12)C12CC3CC(CC(C3)C1)C2
Return: False

Enquiry: hey, is cytotoxicity at 24 h, 50 µM for this one >= 7%? COc1ccc(NC(=S)NC(=O)C23CC4CC(CC(C4)C2)C3)cc1
Return: True

Enquiry: hey, is cytotoxicity at 24 h, 50 µM for this one >= 7%? O=C(NC(=S)Nc1ccc(O)cc1)C12CC3CC(CC(C3)C1)C2
Return: False

Enquiry: hey, is cytotoxicity at 24 h, 50 µM for this one >= 7%? CC(C)c1ccc(NC(=S)NC(=O)C23CC4CC(CC(C4)C2)C3)c(Br)c1
Return: False
